target: human CYP2C19 (Homo sapiens, UniProt P33261); test: biochemical; settings: CYP2C19 IC50 (half-maximal inhibitory concentration)
Sequence (P33261 whole entry): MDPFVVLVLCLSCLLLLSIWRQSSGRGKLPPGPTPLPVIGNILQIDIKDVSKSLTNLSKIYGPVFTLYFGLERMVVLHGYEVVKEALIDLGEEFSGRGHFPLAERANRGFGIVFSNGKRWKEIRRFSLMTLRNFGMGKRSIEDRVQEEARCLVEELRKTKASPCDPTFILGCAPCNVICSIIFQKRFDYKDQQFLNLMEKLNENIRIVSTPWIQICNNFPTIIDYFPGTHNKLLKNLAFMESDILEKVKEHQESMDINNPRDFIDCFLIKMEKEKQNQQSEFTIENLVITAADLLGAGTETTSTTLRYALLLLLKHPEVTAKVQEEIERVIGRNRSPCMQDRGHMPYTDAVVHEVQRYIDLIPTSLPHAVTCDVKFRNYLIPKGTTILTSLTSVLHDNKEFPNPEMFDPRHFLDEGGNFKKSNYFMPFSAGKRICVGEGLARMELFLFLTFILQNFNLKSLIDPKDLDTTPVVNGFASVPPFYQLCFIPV
Where a name gives a salt, the structure may show the parent alone.
ENDPOINT: IC50

[[record]]
compound = "C#CCOS(=O)OC1CCCCC1Oc1ccc(C(C)(C)C)cc1 (stereo not drawn) [Propargite]"
observed_value = "0.78 µM"

[[record]]
compound = "Oc1ccc2ccc3cccc4ccc1c2c34 [1-Hydroxypyrene]"
observed_value = "15.7 µM"

[[record]]
compound = "CCOC(=O)C1=C(C)NC(C)=C(C(=O)OC)C1c1cccc([N+](=O)[O-])c1 (stereo not drawn) [Nitrendipine]"
observed_value = "1.4 µM"

[[record]]
compound = "N#Cc1c(Cl)c(Cl)c(Cl)c(C#N)c1Cl [Chlorothalonil]"
observed_value = "38.4 µM"

[[record]]
compound = "CCOP(=S)(OCC)SCn1c(=O)oc2cc(Cl)ccc21 [Phosalone]"
observed_value = "0.13 µM"

[[record]]
compound = "COc1ccc2cc3[n+](cc2c1OC)CCc1cc2c(cc1-3)OCO2 [Berberine chloride]"
observed_value = "26.9 µM"

[[record]]
compound = "O=C(CN1CCN(Cc2ccc3c(c2)OCO3)CC1)N1c2ccccc2Sc2ccccc21 [Fenoverine]"
observed_value = "40.7 µM"

[[record]]
compound = "COc1ccc(-c2ccccc2)cc1NNC(=O)OC(C)C [Bifenazate]"
observed_value = "0.49 µM"

[[record]]
compound = "CCOC(=O)C1=C(C)NC(C)=C(C(=O)OCC)C1c1ccccc1/C=C/C(=O)OC(C)(C)C [Lacidipine]"
observed_value = "6.72 µM"

[[record]]
compound = "CN(C)CCCN1c2ccccc2Sc2ccc(C(F)(F)F)cc21 [Triflupromazine hydrochloride]"
observed_value = "7.62 µM"

[[record]]
compound = "CCCc1nn(C)c2c(=O)[nH]c(-c3cc(S(=O)(=O)N4CCN(C)CC4)ccc3OCC)nc12 [Sildenafil citrate]"
observed_value = "30.4 µM"

[[record]]
compound = "Cc1ccc2c(c1N)C(=O)c1ccccc1C2=O [1-Amino-2-methylanthraquinone]"
observed_value = "5.66 µM"

[[record]]
compound = "O=C1C(Cl)C(CCl)CN1c1cccc(C(F)(F)F)c1 (stereo not drawn) [Flurochloridone]"
observed_value = "12.3 µM"

[[record]]
compound = "O=[N+]([O-])c1c2ccccc2cc2ccccc12 [9-Nitroanthracene]"
observed_value = "19.9 µM"

[[record]]
compound = "CC(N/C(=N\\C#N)Nc1ccncc1)C(C)(C)C (stereo not drawn) [Pinacidil monohydrate]"
observed_value = "2.06 µM"

[[record]]
compound = "CC1(C)CCC(=Cc2ccc(Cl)cc2)C1(O)Cn1cncn1 (stereo not drawn) [Triticonazole]"
observed_value = "0.34 µM"

[[record]]
compound = "CCOP(=S)(OCC)SCSc1ccc(Cl)cc1 [Carbophenothion]"
observed_value = "0.47 µM"

[[record]]
compound = "C=CCOC(=O)C(C)(C)OC(=O)c1cc(-n2c(=O)cc(C(F)(F)F)n(C)c2=O)ccc1Cl [Butafenacil]"
observed_value = "50 µM"


###

CYP3A4 Efficacy (in parenthesis), CYP3A4 (Homo sapiens): measured values
ENDPOINT: CYP3A4 Efficacy (in parenthesis)

[[record]]
molecule = "O=C1c2ccccc2Cc2ccccc21"
study_target = "CYP3A4 (Homo sapiens)"
endpoint = "CYP3A4 Efficacy (in parenthesis)"
observed_value = "26.66 ± 4.8 (-63 ± 11) %"

[[record]]
molecule = "O=C(Nc1ccccc1SSc1ccccc1NC(=O)c1ccccc1)c1ccccc1 [2,2'-Dibenzoylaminodiphenyl disulfide]"
study_target = "CYP3A4 (Homo sapiens)"
endpoint = "CYP3A4 Efficacy (in parenthesis)"
observed_value = "3.23 ± 1.25 (-75 ± 7) %"

[[record]]
molecule = "Clc1ccccc1-c1nc(-c2ccncc2)no1 [Pifexole]"
study_target = "CYP3A4 (Homo sapiens)"
endpoint = "CYP3A4 Efficacy (in parenthesis)"
observed_value = "33.57 ± 4.62 (-77 ± 10) %"

[[record]]
molecule = "CC(C)(C(=O)c1cccnc1)c1cccnc1"
study_target = "CYP3A4 (Homo sapiens)"
endpoint = "CYP3A4 Efficacy (in parenthesis)"
observed_value = "0.57 ± 0.16 (-62 ± 5) %"

[[record]]
molecule = "Cc1cc(CCC(=O)OCCOCCOCCOC(=O)CCc2cc(C)c(O)c(C(C)(C)C)c2)cc(C(C)(C)C)c1O"
study_target = "CYP3A4 (Homo sapiens)"
endpoint = "CYP3A4 Efficacy (in parenthesis)"
observed_value = "2.56 ± 0.17 (-86 ± 4) %"

[[record]]
molecule = "CCCCCCCCCCCCCC[P+](CCCC)(CCCC)CCCC.CCCCCCCCCCCCc1ccc(S(=O)(=O)[O-])cc1"
study_target = "CYP3A4 (Homo sapiens)"
endpoint = "CYP3A4 Efficacy (in parenthesis)"
observed_value = "7.93 ± 2.21 (104 ± 17) %"

[[record]]
molecule = "COc1c2ccoc2cc2oc(=O)ccc12"
study_target = "CYP3A4 (Homo sapiens)"
endpoint = "CYP3A4 Efficacy (in parenthesis)"
observed_value = "9.16 ± 1.5 (-71 ± 2) %"

[[record]]
molecule = "CCOP(=S)(OCC)Oc1ccc([N+](=O)[O-])cc1"
study_target = "CYP3A4 (Homo sapiens)"
endpoint = "CYP3A4 Efficacy (in parenthesis)"
observed_value = "3.18 ± 0.89 (-79 ± 1) %"

[[record]]
molecule = "CC(C)C1CCC(Cc2ccc(Cl)cc2)C1(O)Cn1cncn1 (stereo not drawn)"
study_target = "CYP3A4 (Homo sapiens)"
endpoint = "CYP3A4 Efficacy (in parenthesis)"
observed_value = "0.05 ± 0.01 (-89 ± 5) %"


###

CYP3A4 (Homo sapiens) data, read-out CYP3A4 Efficacy (in parenthesis)
Sequence (P08684 whole entry): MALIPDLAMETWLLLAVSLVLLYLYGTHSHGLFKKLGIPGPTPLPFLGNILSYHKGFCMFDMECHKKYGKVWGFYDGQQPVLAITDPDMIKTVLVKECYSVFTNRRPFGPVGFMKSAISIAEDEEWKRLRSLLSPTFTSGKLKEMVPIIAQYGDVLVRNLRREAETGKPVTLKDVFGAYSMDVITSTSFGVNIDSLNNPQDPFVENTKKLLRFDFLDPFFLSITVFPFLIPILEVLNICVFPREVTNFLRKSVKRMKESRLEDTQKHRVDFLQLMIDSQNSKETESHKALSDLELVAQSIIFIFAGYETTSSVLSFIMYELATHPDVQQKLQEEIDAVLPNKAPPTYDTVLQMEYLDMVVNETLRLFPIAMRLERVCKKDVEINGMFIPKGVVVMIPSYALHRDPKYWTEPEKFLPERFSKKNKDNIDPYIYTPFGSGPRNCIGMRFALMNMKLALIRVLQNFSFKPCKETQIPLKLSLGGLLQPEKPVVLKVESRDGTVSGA
ENDPOINT: CYP3A4 Efficacy (in parenthesis)

[[record]]
compound = "CC(=O)c1ccc2ccc3ccccc3c2c1 [3-Acetylphenanthrene]"
observed_value = "48.54 ± 19.2 (-66 ± 4) %"

[[record]]
compound = "CCNP(=S)(OC)O/C(C)=C/C(=O)OC(C)C (centres unmarked) [Propetamphos]"
observed_value = "1.05 ± 0.36 (-88 ± 2) %"

[[record]]
compound = "OCC(c1ccc(Cl)cc1)c1ccc(Cl)cc1 [2,2-Bis(4-chlorophenyl)ethanol]"
observed_value = "18.71 ± 6.46 (64 ± 10) %"

[[record]]
compound = "C=CCOC(Cn1ccnc1)c1ccc(Cl)cc1Cl.O=S(=O)(O)O (centres unmarked) [Imazalil sulfate]"
observed_value = "0.12 ± 0.02 (-91 ± 3) %"

[[record]]
compound = "CCCC1COC(Cn2cncn2)(c2ccc(Cl)cc2Cl)O1 (centres unmarked) [Propiconazole]"
observed_value = "0.06 ± 0.02 (-71 ± 3) %"


###

biological target: human CYP2D6 (Homo sapiens, UniProt P10635); test: biochemical; details: CYP2D6 IC50 (half-maximal inhibitory concentration)
Sequence (P10635 whole entry): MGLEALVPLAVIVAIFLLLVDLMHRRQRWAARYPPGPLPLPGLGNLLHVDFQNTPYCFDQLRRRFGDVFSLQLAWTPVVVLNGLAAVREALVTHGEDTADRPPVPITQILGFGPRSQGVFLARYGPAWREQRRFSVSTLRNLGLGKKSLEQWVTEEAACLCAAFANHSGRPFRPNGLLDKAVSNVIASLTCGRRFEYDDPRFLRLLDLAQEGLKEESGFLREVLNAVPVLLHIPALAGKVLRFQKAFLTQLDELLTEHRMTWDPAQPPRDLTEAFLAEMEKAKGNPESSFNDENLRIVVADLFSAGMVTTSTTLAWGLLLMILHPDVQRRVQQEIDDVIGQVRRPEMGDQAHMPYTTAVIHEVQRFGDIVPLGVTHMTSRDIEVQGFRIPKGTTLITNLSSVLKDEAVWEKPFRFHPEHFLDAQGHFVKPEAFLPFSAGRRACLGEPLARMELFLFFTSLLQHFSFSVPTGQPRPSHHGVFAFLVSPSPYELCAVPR
pIC50: −log10 of the molar value. Structures can show the parent of a compound that is named as a salt.
I would appreciate it if you labelled entries label 1 when pIC50 is 5 or higher, otherwise label 0.

[[record]]
compound = "C[Si](Cn1cncn1)(c1ccc(F)cc1)c1ccc(F)cc1"
class_label = "label 0"

[[record]]
compound = "C[C@@H]1C[C@H]2[C@@H]3CCC4=CC(=O)C=C[C@]4(C)[C@@]3(Cl)[C@@H](O)C[C@]2(C)[C@@]1(OC(=O)c1ccco1)C(=O)CCl [Mometasone furoate, reference compound]"
class_label = "label 1"

[[record]]
compound = "CN(C)CCCSc1ccccc1NC(=O)/C=C/c1ccccc1"
class_label = "label 1"

[[record]]
compound = "O=C(NCCc1c[nH]c2ccccc12)c1cccnc1"
class_label = "label 0"

[[record]]
compound = "Nc1ccc2c(c1)C(=O)c1ccccc1C2=O"
class_label = "label 0"

[[record]]
compound = "O=C(Nc1ccccc1)OCC(CN1CCCCC1)OC(=O)Nc1ccccc1 (centres unmarked) [Diperodon hydrochloride]"
class_label = "label 1"

[[record]]
compound = "CN1C[C@H](C(=O)N[C@]2(C)O[C@@]3(O)[C@@H]4CCCN4C(=O)[C@H](Cc4ccccc4)N3C2=O)C=C2c3cccc4[nH]cc(c34)C[C@H]21 [Ergotamine D-tartrate]"
class_label = "label 0"

[[record]]
compound = "COc1cccc(C(=O)NN(C(=O)c2cc(C)cc(C)c2)C(C)(C)C)c1C [Methoxyfenozide]"
class_label = "label 0"

[[record]]
compound = "CCCCN(CCCC)CCCOC(=O)c1ccc(N)cc1"
class_label = "label 1"

[[record]]
compound = "OCc1c2ccccc2cc2ccccc12"
class_label = "label 0"

[[record]]
compound = "N#C/C(=C1/SC[C@@H](c2ccc(Cl)cc2Cl)S1)n1ccnc1 [luliconazole, reference compound]"
class_label = "label 1"

[[record]]
compound = "O=[N+]([O-])c1ccc2ccc3cccc4ccc1c2c34"
class_label = "label 0"

[[record]]
compound = "COc1ccc([C@@H]2Sc3ccccc3N(CCN(C)C)C(=O)[C@@H]2OC(C)=O)cc1"
class_label = "label 0"

[[record]]
compound = "OC(CCCN1CCCCC1)(c1ccccc1)c1ccccc1"
class_label = "label 1"

[[record]]
compound = "CCCCC(=O)O[C@]1(C(=O)CO)[C@@H](C)C[C@H]2[C@@H]3CCC4=CC(=O)C=C[C@]4(C)[C@@]3(F)[C@@H](O)C[C@@]21C [Betamethasone valerate]"
class_label = "label 0"

[[record]]
compound = "CCOCn1c(-c2ccc(Cl)cc2)c(C#N)c(Br)c1C(F)(F)F"
class_label = "label 0"

[[record]]
compound = "NC(=O)C(c1ccccc1)(c1ccccc1)[C@@H]1CCN(CCc2ccc3c(c2)CCO3)C1 [Darifenacin hydrobromide]"
class_label = "label 1"

[[record]]
compound = "CC(C)C1CCC(Cc2ccc(Cl)cc2)C1(O)Cn1cncn1 (centres unmarked)"
class_label = "label 0"

[[record]]
compound = "CCCC(Cn1cncn1)c1ccc(Cl)cc1Cl (centres unmarked)"
class_label = "label 0"

[[record]]
compound = "Clc1ccc(C(c2ccc(Cl)cc2)C(Cl)Cl)cc1"
class_label = "label 0"

[[record]]
compound = "COc1ccc(C(c2ccc(OC)cc2)C(Cl)(Cl)Cl)cc1"
class_label = "label 0"

[[record]]
compound = "COC(=O)N(C(=O)N1CO[C@@]2(C(=O)OC)Cc3cc(Cl)ccc3C2=N1)c1ccc(OC(F)(F)F)cc1"
class_label = "label 0"

[[record]]
compound = "CN(C)CCN(Cc1ccccc1)c1ccccn1 [Tripelennamine citrate]"
class_label = "label 1"

[[record]]
compound = "CC1(C)CCC(Cc2ccc(Cl)cc2)C1(O)Cn1cncn1 (centres unmarked)"
class_label = "label 0"

[[record]]
compound = "COc1c2ccoc2cc2oc(=O)ccc12"
class_label = "label 1"

[[record]]
compound = "CC(C)(C)C(=O)C(Oc1ccc(Cl)cc1)n1ccnc1 (centres unmarked)"
class_label = "label 0"

[[record]]
compound = "Fc1ccc(Oc2ccnc3cc(Cl)cc(Cl)c23)cc1"
class_label = "label 0"

[[record]]
compound = "CCOC(=O)C1=C(C)NC(C)=C(C(=O)OCC)C1c1ccccc1/C=C/C(=O)OC(C)(C)C"
class_label = "label 0"

[[record]]
compound = "CCN(CC)c1c([N+](=O)[O-])cc(C(F)(F)F)c(N)c1[N+](=O)[O-]"
class_label = "label 0"

[[record]]
compound = "Clc1ccccc1C(c1ccccc1)(c1ccccc1)n1ccnc1"
class_label = "label 0"

[[record]]
compound = "COc1ccc(-c2coc3cc(O)ccc3c2=O)cc1"
class_label = "label 0"

[[record]]
compound = "CCN(CC)CCN1C(=O)CN=C(c2ccccc2F)c2cc(Cl)ccc21"
class_label = "label 0"

